tested on: RAW-Dual (murine macrophage reporter line); assay: NF-kB reporter (SEAP) activity fold change vs agonist alone; higher = enhanced NF-kB activity; details: modulator concentration 10 µM; agonist: CpG ODN 1826 0.5 ug/mL
parameterMeasured: NF-kB reporter
// no unit string in output, number only

// below: answered compounds
{"columns": ["compound", "NF-kB reporter"],
 "data": [
  ["CCOc1ccccc1OCCCCOc1cccc(C)c1C", 0.984],
  ["O=C(CCCCCN1C(=O)c2cccc3cccc(c23)C1=O)NCCCO", 0.997],
  ["Cc1cc(I)cc2c1NC(c1cccc([N+](=O)[O-])c1)C1CC=CC21 (stereo unspecified)", 0.921],
  ["Cn1nc2c(c1CNS(=O)(=O)CCC(F)(F)F)CCC2", 0.93],
  ["Cc1ccc(C)c(NC(=O)CCN2CCN(C=O)CC2)c1", 0.822],
  ["CCOc1cc2ncc(C#N)c(Nc3ccc(F)c(Cl)c3)c2cc1NC(=O)/C=C/CN(C)C", 0.714]
]}

Query CC(C)Cn1cc(Cl)c(=O)n(CC(C)C)c1=O yields NF-kB reporter of 1.12

For reference, reported NF-kB reporter for CCOC(=O)C1=C(C)NC(C)=C(C(=O)OC)C1c1ccc(C)cc1 (stereo unspecified) stands at 0.782

Short answer for Ic1ccc2c3ccc(I)cc3c3[nH]c(-c4ccccc4)nc3c2c1 : NF-kB reporter was 1.03

The recorded NF-kB reporter for entry Cc1ccccc1-c1noc(-c2cc3ccccc3oc2=O)n1 equals 0.911

Measured NF-kB reporter, Cc1ccc(Nc2nc(N3CCOCC3)nc(N3CCN(c4ccccc4)CC3)n2)cc1 : 0.454

* * *

system: RAW-Dual (murine macrophage reporter line); test: NF-kB reporter (SEAP) activity fold change vs agonist alone; higher = enhanced NF-kB activity; conditions: modulator concentration 10 µM; agonist: MPLA […]
Decide using NF-kB reporter: a value greater than or equal to 1 is True, a smaller one is False.

Answered cases to consult:
{"columns": ["structureSmiles", "systemTested", "classification"],
 "data": [
  ["O=C(NN=Cc1c(O)ccc2ccccc12)c1ccccc1Br", "RAW-Dual (murine macrophage reporter line)", "True"],
  ["CN1CCC(=C2c3ccccc3C=Cc3ccccc32)CC1.Cl", "RAW-Dual (murine macrophage reporter line)", "False"],
  ["Cc1c(Cl)cccc1Nc1ccccc1C(=O)O", "RAW-Dual (murine macrophage reporter line)", "False"],
  ["O=C(C=Cc1cccc([N+](=O)[O-])c1)NCCc1ccccc1", "RAW-Dual (murine macrophage reporter line)", "False"],
  ["Oc1ccc(-c2cnc(-c3ccc(O)cc3)nc2)cc1", "RAW-Dual (murine macrophage reporter line)", "True"]
]}

Enquiry: Quick check, NF-kB reporter >= 1? CN1CCN(C2=Nc3ccccc3Oc3ccc(Cl)cc32)CC1.O=C(O)CCC(=O)O
Return: True

* * *

tested on: RAW-Dual (murine macrophage reporter line); assay: IRF reporter (Lucia luciferase) activity fold change vs agonist alone; higher = enhanced IRF activity; conditions: modulator concentration 10 µM; agonist: 3'3'-cGAMP 10 ug/mL
Where IRF reporter equals or exceeds 0.9, the correct label is Yes; where it does not, the label is No.

{"columns": ["compound", "classification"],
 "data": [
  ["Cl.Nc1ccn([C@@H]2O[C@H](CO)[C@@H](O)C2(F)F)c(=O)n1", "Yes"],
  ["CC(=O)Oc1cccc2c1C(=O)c1c(OC(C)=O)cc(C(=O)O)cc1C2=O", "Yes"],
  ["O=C(Oc1ccc(C=Nc2ccc([N+](=O)[O-])cc2)cc1)c1ccccc1", "No"],
  ["CC(C)NC(=O)CCn1c(=O)c2cc(Cl)ccc2n2c(SCc3ccc(F)cc3)nnc12", "Yes"],
  ["CC(=Cc1ccccc1)CN1CC(C)OC(C)C1 (stereo not drawn)", "Yes"]
]}

Enquiry: Test whether the compound O=C(Nc1ccc([N+](=O)[O-])cc1Br)C1CC12CCC2 (stereo not drawn) records IRF reporter of 0.9 or higher.
Return: Yes

Enquiry: For this compound, is measured IRF reporter 0.9 or higher? CCOC(=O)C1=C(COCCN)NC(C)=C(C(=O)OC)C1c1ccccc1Cl (stereo not drawn)
Return: Yes

Enquiry: hey, is IRF reporter for this one >= 0.9? O=C(Nc1nc2cccc(-c3ccc(CN4CCS(=O)(=O)CC4)cc3)n2n1)C1CC1
Return: No

Enquiry: API: above_or_equal(metric=IRF reporter, cutoff=0.9) for item Cc1ccccc1C(=O)N1CC(S(=O)(=O)CC(C)C)C1
Return: Yes

Enquiry: I'd appreciate it if you could say whether CC1CCc2c(oc3ccc(NS(=O)(=O)c4ccc(F)cc4)cc23)C1 (stereo not drawn) has IRF reporter at least equal to 0.9.
Return: No

Enquiry: In plain terms: is recorded IRF reporter at least 0.9 for CC(C)n1cnc(S(=O)(=O)N2CCC(S(=O)(=O)c3nccn3C)CC2)c1 ?
Return: Yes

Enquiry: Check if IRF reporter >= 0.9 (inclusive). Item: Cc1ccc(CNC(=O)C(=O)NC2CCCCC2)cc1
Return: Yes

Enquiry: Hi, just wondering whether C[C@@H]1CCN(C(=O)CC#N)C[C@@H]1N(C)c1ncnc2[nH]ccc12.O=C(O)CC(O)(CC(=O)O)C(=O)O shows IRF reporter of 0.9 or higher.
Return: No

Enquiry: Entry NS(=O)(=O)c1ccc(F)cc1 : is its IRF reporter no less than 0.9?
Return: Yes

Enquiry: Dear colleague, could you confirm whether C1CCC(N2NC2C2NN2C2CCCCC2)CC1 (stereo not drawn) has IRF reporter at or above 0.9?
Return: Yes

Enquiry: Identify whether the reported IRF reporter of the following compound is 0.9 or greater: CCOC(=O)C(Oc1ccc2c(c1)oc(=O)c1cc(OC)ccc12)c1ccccc1 (stereo not drawn)
Return: Yes

Enquiry: Given the entry Cn1c(=O)[nH]c2nnc(-c3cccnc3)nc2c1=O , answer whether its IRF reporter meets or surpasses 0.9.
Return: Yes

Enquiry: Please check the record Nc1ccn([C@@H]2O[C@H](CO)[C@@H](O)C2(F)F)c(=O)n1 and state if its IRF reporter is at or above 0.9.
Return: Yes

Enquiry: Determine whether this compound has IRF reporter no lower than 0.9: COCCOC(=O)C1=C(C)NC(C)=C(C(=O)OC/C=C/c2ccccc2)C1c1cccc([N+](=O)[O-])c1 (stereo not drawn)
Return: Yes

Enquiry: // inclusive: IRF reporter at least 0.9? input: Nc1ccc(C=Cc2ccccc2)cc1
Return: No

Enquiry: I'd appreciate it if you could say whether CC(Oc1ccccc1)C(=O)NCc1cc(-c2ccncc2)n(C2CCCC2)n1 (stereo not drawn) has IRF reporter at least equal to 0.9.
Return: Yes

Enquiry: Identify whether the reported IRF reporter of the following compound is 0.9 or greater: CN1C(=O)C(=NNC(=O)COc2cccc(Br)c2)c2ccccc21
Return: Yes

Enquiry: Reported IRF reporter at or above 0.9? CCOC(=O)C1=C(C)OC(N)=C(C#N)C1c1cc(C)c(OC)cc1C (stereo not drawn)
Return: No

Enquiry: Please indicate if the recorded IRF reporter for O=C(O)CCC(=O)c1ccc(-c2ccccc2)cc1 meets or exceeds 0.9.
Return: Yes

* * *

Listed next: entries and their corresponding viability score.
test system: RAW-Dual (murine macrophage reporter line); assay: viability score (confluency relative to resting cells, overnight) (fraction); higher = more viable, active = viable (0.7 or more); settings: modulator concentration 10 µM
API doc: respond with a numeric literal and nothing else, no unit.

viability score recorded for this molecule, O=C(Nc1ccc([N+](=O)[O-])cc1Br)C1CC12CCC2 (stereo unspecified) , is 1.02

Value of measured viability score for the entry COc1ccc(NC(=O)CN(c2ccc(C)c(C)c2)S(C)(=O)=O)cc1Cl : 1

Per the records, this molecule ( O=C(NCC1CCCN1c1nccs1)C1CC1 (stereo unspecified) ) has viability score equal to 0.99

Field viability score (entry CS(=O)(=O)N(CC(=O)N1CCCCCC1)c1ccc(Cl)c(C(F)(F)F)c1 ) reads 1

viability score for COc1ccc(-c2cc(=O)oc3cc(OCc4cc5c(cc4Cl)OCO5)ccc23)cc1 is 1.01

* * *

test system: RAW-Dual (murine macrophage reporter line); assay: IRF reporter (Lucia luciferase) activity fold change vs agonist alone; higher = enhanced IRF activity; details: modulator concentration 10 µM; agonist: 3'3'-cGAMP 10 ug/mL
The compounds listed here are annotated with their IRF reporter.
Enter the number alone.

{"columns": ["compound", "IRF reporter"],
 "data": [
  ["CCCc1nn(C)c2c(=O)[nH]c(-c3cc(S(=O)(=O)N4CCN(C)CC4)ccc3OCC)nc12", 0.928],
  ["CCCn1c(C(O)(c2ccccc2)c2ccccc2)nc2ccccc21", 1.3],
  ["CN(C)CCN(Cc1ccccc1)Cc1cc(Cl)cc(Cl)c1O", 0.947]
]}

// IRF reporter value for CC1(C)Cc2ccccc2C(C[N+](=O)[O-])=N1 : 0.963

Field IRF reporter (entry O=C(CN1CCN(c2ccccc2F)C1=O)N1CCCC(Oc2cnccn2)C1 (stereo unspecified) ) reads 1.02

Record Cc1[nH]c2ccc(Br)cc2c(=O)c1CN1CCOCC1 . Reported IRF reporter: 1.01

Measured IRF reporter, COC(=O)c1cccc(Nc2nc(C=Cc3ccccc3)nc3ccccc23)c1 : 0.658

# IRF reporter (compound: CN1CCN(CC(O)Cn2c3ccccc3c3ccccc32)CC1.O=C(O)C(=O)O (stereo unspecified) ) is 0.609

The reported IRF reporter of the compound Br.COc1ccc2c3c1O[C@H]1C[C@@H](O)C=C[C@@]31CCN(C)C2 was 0.912

Lab note: COC(=O)CCS(=O)(=O)c1ccc2ccccc2c1 gave IRF reporter of 1.08

GET /value?item= COC(=O)C1=CN(CC2CCCO2)C=C(C(=O)OC)C1c1ccsc1 (stereo unspecified) &field=IRF reporter returns 0.895
